# STUDY_TARGET: human somatostatin receptor subtype 5 (Homo sapiens, UniProt P35346)
# Construct: expressed in transfected cells
# Sequence (P35346 whole entry): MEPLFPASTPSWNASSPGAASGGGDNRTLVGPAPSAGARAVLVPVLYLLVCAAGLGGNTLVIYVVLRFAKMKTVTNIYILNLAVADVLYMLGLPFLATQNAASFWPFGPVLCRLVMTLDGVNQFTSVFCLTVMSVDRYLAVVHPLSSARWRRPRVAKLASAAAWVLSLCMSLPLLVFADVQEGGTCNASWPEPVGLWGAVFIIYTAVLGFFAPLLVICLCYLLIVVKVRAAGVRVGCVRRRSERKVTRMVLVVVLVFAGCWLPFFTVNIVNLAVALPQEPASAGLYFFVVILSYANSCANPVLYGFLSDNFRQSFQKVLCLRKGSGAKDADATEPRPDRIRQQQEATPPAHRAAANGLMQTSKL
# PROTOCOL_SUMMARY: cAMP assay for SST5R (inhibition of cAMP in CHO-K1 cells)
# Type: cell-based
# TEST_SETTINGS: Table A; inhibition of cAMP via human SST5 receptor; read-out: SST5 potency
pEC50: −log10 of the molar value.
MEASUREMENT_NAME: pEC50

Some compounds with known pEC50 results, for comparison:
Record "C[C@H](NC(=O)c1cnc(OCC2CC2)c(-c2cc(F)cc(F)c2)c1N1CC[C@](C)(N)C1)C1CC1" , field pEC50: > 8.00

Record C[C@H](NC(=O)c1cnc(C#N)c(-c2cc(F)cc(F)c2)c1N1C[C@H](N)[C@@H](F)C1)C1CC1 (single isomer, unassigned) , field pEC50: 7.00 to 8.00

Record "Cc1cccc2[nH]c(-c3cncc(C(=O)NCCO)c3N3CC[C@](C)(N)C3)nc12" , field pEC50: 6.00 to 7.00

Record "COc1ncc(C(=O)N[C@@H](C)C(F)(F)F)c(N2CC[C@](C)(N)C2)c1-c1ccc(F)c(F)c1" , field pEC50: > 8.00

Record "CCCCNC(=O)c1cnc(C#N)c(-c2ccnc(OC)c2)c1N1CC[C@](C)(N)C1" , field pEC50: > 8.00

Record "C[C@H](NC(=O)c1cnc(C#N)c(-c2cccc(OC(F)F)c2)c1N1CC[C@](C)(N)C1)C(F)(F)F" , field pEC50: > 8.00

---
Record "C[C@]1(N)CCN(c2c(C(=O)NC34CC(F)(C3)C4)cnc(C(F)(F)F)c2-c2cc(F)cc(F)c2)C1" , field pEC50: > 8.00

* * *

# STUDY_TARGET: human somatostatin receptor subtype 2 (Homo sapiens, UniProt P30874)
# Sequence (P30874 whole entry): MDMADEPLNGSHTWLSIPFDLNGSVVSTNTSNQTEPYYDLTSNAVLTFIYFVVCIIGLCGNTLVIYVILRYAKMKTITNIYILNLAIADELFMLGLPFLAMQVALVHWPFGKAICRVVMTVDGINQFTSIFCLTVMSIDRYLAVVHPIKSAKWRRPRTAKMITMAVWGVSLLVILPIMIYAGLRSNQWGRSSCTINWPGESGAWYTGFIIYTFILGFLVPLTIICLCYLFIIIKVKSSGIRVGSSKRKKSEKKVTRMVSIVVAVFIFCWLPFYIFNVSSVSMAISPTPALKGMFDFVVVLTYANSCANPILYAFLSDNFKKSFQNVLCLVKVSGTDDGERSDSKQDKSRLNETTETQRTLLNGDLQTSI
# PROTOCOL_SUMMARY: cAMP assay for SST2R (inhibition of cAMP in CHO-K1 cells)
# TEST_SETTINGS: Table B; inhibition of cAMP via human SST2 receptor; read-out: SST2 potency
pEC50: −log10 of the molar value.
MEASUREMENT_NAME: pEC50

Recorded pEC50 for "Cc1ncc(C(=O)N[C@@H](C)C2CC2)c(N2CC[C@](C)(N)C2)c1-c1cccc(F)c1" on human somatostatin receptor subtype 2 (Homo sapiens, UniProt P30874) was 6.00 to 7.00

Recorded pEC50 for "COc1cc(-c2c(C)ncc(C(=O)N[C@@H](C)C3CC3)c2N2CC[C@](C)(N)C2)ccn1" on human somatostatin receptor subtype 2 (Homo sapiens, UniProt P30874) was < 6.00

Recorded pEC50 for "Cc1ncc(C(=O)N[C@@H](C)C2CC2)c(N2CC[C@](C)(N)C2)c1-c1cc(F)cc(F)c1" on human somatostatin receptor subtype 2 (Homo sapiens, UniProt P30874) was 6.00 to 7.00

* * *

# STUDY_TARGET: human somatostatin receptor subtype 5 (Homo sapiens, UniProt P35346)
# Construct: expressed in transfected cells
# PROTOCOL_SUMMARY: cAMP assay for SST5R (inhibition of cAMP in CHO-K1 cells)
# Format: cell-based
# TEST_SETTINGS: Table A; inhibition of cAMP via human SST5 receptor; read-out: SST5 potency
List of EC50 values.

Some compounds with known EC50 results, for comparison:
Record CC(C)C(NC(=O)c1cncc(-c2cc(F)cc(F)c2)c1N1CC[C@](C)(N)C1)C(F)(F)F (stereo partly shown) , field EC50: < 0.01 µM

Record "COc1ncc(C(=O)N[C@@H](C)c2ccccn2)c(N2CC[C@](C)(N)C2)c1-c1cc(F)cc(OC(F)F)c1" , field EC50: 0.01 to 0.1 µM

Record "CCN(C)C(=O)c1cncc(-c2nc3c(C)cccc3[nH]2)c1N1CC[C@](C)(N)C1" , field EC50: 0.01 to 0.1 µM

---
Record CC(N)C1CN(c2c(C(=O)NC34CC(C3)C4)cnc(C#N)c2-c2cc(F)cc(F)c2)C1 (stereo not shown) , field EC50: < 0.01 µM

Record "N[C@H]1CCN(c2c(C(=O)NC34CC(F)(C3)C4)cnc(C(F)(F)F)c2-c2cc(F)cc(F)c2)C1" , field EC50: < 0.01 µM

Record "CCC1(NC(=O)c2cncc(-c3cc(C)cc(F)c3)c2N2CC[C@](C)(N)C2)CCC1" , field EC50: < 0.01 µM

Record "COc1cc(-c2c(C#N)ncc(C(=O)NCC(C)C)c2N2CC[C@](C)(N)C2)ccn1" , field EC50: < 0.01 µM

Record "COc1ncc(C(=O)NC23CC(F)(C2)C3)c(N2CC[C@H](N)C2)c1-c1cc(F)cc(Cl)c1" , field EC50: < 0.01 µM

Record "Cc1cc(C)cc(NC(=O)c2cncc(-c3ccnc(C)c3)c2N2CC[C@](C)(N)C2)c1" , field EC50: < 0.01 µM

Record "Cc1ncc(C(=O)NC2CCC(F)(F)CC2)c(N2CC[C@H](N)C2)c1-c1cc(F)cc(Cl)c1" , field EC50: < 0.01 µM

Record "CCC(CC)CNC(=O)c1cncc(-c2cc(F)cc(F)c2)c1N1CC[C@](C)(N)C1" , field EC50: < 0.01 µM

Record "Cc1ncc(C(=O)N[C@@H](C)C2CC2)c(N2CC[C@](C)(N)C2)c1-c1cnn(CC(F)(F)F)c1" , field EC50: > 1 µM

Record CC(NC(=O)c1cnc(C#N)c(-c2cc(F)cc(F)c2)c1N1CCC(N)C1)C(F)(F)F (stereo not shown) , field EC50: < 0.01 µM

Record "COc1ncc(C(=O)NCc2ccon2)c(N2CC[C@](C)(N)C2)c1-c1cc(F)cc(OC(F)F)c1" , field EC50: < 0.01 µM

Record C[C@H](NC(=O)c1cnc(C#N)c(-c2cc(F)cc(F)c2)c1N1CC[C@@](N)(CC(F)F)C1)C1CC1 (single isomer, unassigned) , field EC50: 0.1 to 1 µM

Record "COc1ncc(C(=O)N[C@@H](C)C2CC2)c(N2CC[C@](C)(N)C2)c1-c1ccc(F)c(F)c1" , field EC50: < 0.01 µM

meta.source: patent US12600709B2
